system: IGROV1 complex spheroids (HUVEC, MSC), viability % test/control; assay: Anticancer human tumor IGROV1 cell line growth inhibition [GQUAD]; details: second compound 0.316 µM; first compound 0.0316 µM; stronger effect = lower value;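 further: spheroids exposed to compounds for 7 days before readout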
Please respond with Y when measured viability, T/C is strictly beneath 10%, and with N in all other cases.

>>> class_name("COc1ccc([C@@H](O)c2cc(-c3ncnc4cc(N5CCOCC5)ccc34)c(F)cc2Cl)nn1 + Cc1[nH]c2ccc(F)cc2c1-c1nc2c3cccnc3c3ncccc3c2[nH]1")
"N"
>>> class_name("CC1COCCN1c1cc(C2(O)CC3CCC(C2)O3)c2cnn(-c3ccn[nH]3)c2n1 (stereo not given) + Cc1cnc(CNC(=O)c2c(=O)c3ccc(N4CCCN(C)CC4)nc3n3c2sc2ccccc23)cn1")
"Y"
>>> class_name("Cc1[nH]c2ccccc2c1CCNCc1ccc(/C=C/C(=O)NO)cc1 + CN(C)c1ccc(Nc2c3ccc(NC(=O)CCN4CCCC4)cc3nc3cc(NC(=O)CCN4CCCC4)ccc23)cc1")
"N"

Incoming: # TODO verify viability, T/C < 10% strictly for this molecule: CC(=O)O[C@H]1C(=O)[C@@]2(C)[C@H]([C@H](OC(=O)c3ccccc3)[C@]3(O)C[C@H](OC(=O)[C@H](O)[C@@H](NC(=O)c4ccccc4)c4ccccc4)C(C)=C1C3(C)C)[C@]1(OC(C)=O)CO[C@@H]1C[C@@H]2O + CN(C)c1ccc(Nc2c3ccc(NC(=O)CCN4CCCC4)cc3nc3cc(NC(=O)CCN4CCCC4)ccc23)cc1
Outgoing: Y

Incoming: # TODO verify viability, T/C < 10% strictly for this molecule: CC[C@@]1(O)C(=O)OCc2c1cc1n(c2=O)Cc2cc3c(CN(C)C)c(O)ccc3nc2-1 + Cc1cnc(CNC(=O)c2c(=O)c3ccc(N4CCCN(C)CC4)nc3n3c2sc2ccccc23)cn1
Outgoing: N
